Species on record: Rattus norvegicus
Experiment: DrugMatrix - Regimen: Daily Repeat
Assay type: toxicity, organism-based, Sprague-Dawley
Set-up: regimen Daily Repeat, gender Male, age 6-8 weeks
Conditions: in vivo, po, 0 mg/kg, 72 h, tissue Plasma, route oral GAVAGE, dose level Control, time 3 day, […]
measured quantity: ALBUMIN (G/DL)
Give bare numbers, in G/DL.

CC(=O)Nc1nnc(S(N)(=O)=O)s1 [ACETAZOLAMIDE]    4
CC[C@H](C)C(=O)O[C@H]1C[C@H](O)C=C2C=C[C@H](C)[C@H](CC[C@@H](O)C[C@@H](O)CC(=O)O)[C@H]21    4.02
CN(CCOc1ccc(CC2SC(=O)NC2=O)cc1)c1ccccn1 (centres undefined)    4.02

Okay, next one:
Just so you know, measured ALBUMIN for `CCn1cc(C(=O)O)c(=O)c2cc(F)c(N3CCNCC3)nc21` came out at 3.97

====

Record form. Attribute: SODIUM. Fill in for each entry.
Species: Rattus norvegicus
Test: DrugMatrix - Regimen: Daily Repeat
Type: toxicity, organism-based, Sprague-Dawley
Parameters: regimen Daily Repeat, gender Male, age 6-8 weeks
Settings: in vivo, po, 0 mg/kg, 72 h, tissue Plasma, route oral GAVAGE, dose level Control, time 3 day, vehicle .5 % CMC
Answers are plain numbers, in MEQ/L.

CC(=O)O[C@]1(C(C)=O)CC[C@H]2[C@@H]3C=C(Cl)C4=CC(=O)[C@@H]5C[C@@H]5[C@]4(C)[C@H]3CC[C@@]21C [CYPROTERONE ACETATE]    141.65
COc1ccc(/C=C/C(=O)Nc2ccccc2C(=O)O)cc1OC    141.28
C[C@@H]1CC[C@H]2[C@@H](C)C(=O)O[C@@H]3O[C@@]4(C)CC[C@@H]1[C@]32OO4 [ARTEMISININ]    141.02
Cc1cnc(C(=O)NCCc2ccc(S(=O)(=O)NC(=O)NC3CCCCC3)cc2)cn1 [GLIPIZIDE]    141.65
CC[C@]1(O)CC[C@H]2[C@@H]3CCC4=CCCC[C@@H]4[C@H]3CC[C@@]21C    145.83
O=c1cc(-c2ccccc2)oc2ccc3ccccc3c12 [BETA-NAPHTHOFLAVONE]    147.33
Nc1cccc(Cl)c1 [3-CHLOROANILINE]    145.67
CCOC(=O)[C@H](CCc1ccccc1)N[C@@H](C)C(=O)N1Cc2ccccc2C[C@H]1C(=O)O    141.65

Okay, next one:
Just so you know, measured SODIUM for C=C(CC)C(=O)c1ccc(OCC(=O)O)c(Cl)c1Cl [ETHACRYNIC ACID] came out at 149.67

====

Record form. Attribute: CHOLESTEROL. Fill in for each entry.
Organism: Rattus norvegicus
Experiment: DrugMatrix - Regimen: Daily Repeat
Type: toxicity, organism-based, Sprague-Dawley
Parameters: regimen Daily Repeat, gender Male, age 6-8 weeks
Settings: in vivo, po, 0 mg/kg, 72 h, tissue Plasma, route oral GAVAGE, dose level Control, time 3 day, […]
Could you give the number and then its unit, please?

Illustrative cases are given below, each with its answer.
CC(CCc1ccc(O)cc1)NCCc1ccc(O)c(O)c1 (centres undefined)    70.33 mg/dL
C#C[C@]1(O)CC[C@H]2[C@@H]3CCc4cc(O)ccc4[C@H]3CC[C@@]21C    68.67 mg/dL

Parameter requested: CHOLESTEROL. Apply to each item below.
1. CC[C@H](C)C(=O)O[C@H]1C[C@H](O)C=C2C=C[C@H](C)[C@H](CC[C@@H](O)C[C@@H](O)CC(=O)O)[C@H]21
2. OCCN1CCN(CCCN2c3ccccc3Sc3ccc(C(F)(F)F)cc32)CC1

["71.33 mg/dL", "70.5 mg/dL"]

====

Organism: Rattus norvegicus
Assay: DrugMatrix - Regimen: Daily Repeat
Format: toxicity, organism-based, Sprague-Dawley
Parameters: regimen Daily Repeat, gender Male, age 6-8 weeks
Details: in vivo, po, 0 mg/kg, 72 h, tissue Blood, route oral GAVAGE, dose level Control, time 3 day, vehicle .5 % CMC
measured quantity: PLATELET COUNT
Could you give the number and then its unit, please?

Illustrative cases are given below, each with its answer.
CCCCC1C(=O)N(c2ccccc2)N(c2ccccc2)C1=O    866.17 x10E3/uL
CC[C@]1(O)CC[C@H]2[C@@H]3CCC4=CCCC[C@@H]4[C@H]3CC[C@@]21C    1432.17 x10E3/uL

Parameter requested: PLATELET COUNT. Apply to each item below.
1. C=C(CC)C(=O)c1ccc(OCC(=O)O)c(Cl)c1Cl
2. COc1ccc(/C=C/C(=O)Nc2ccccc2C(=O)O)cc1OC
3. CC(C)(Sc1cc(C(C)(C)C)c(O)c(C(C)(C)C)c1)Sc1cc(C(C)(C)C)c(O)c(C(C)(C)C)c1
4. O=c1cc(-c2ccccc2)oc2ccc3ccccc3c12
5. Cc1cnc(C(=O)NCCc2ccc(S(=O)(=O)NC(=O)NC3CCCCC3)cc2)cn1 [GLIPIZIDE]

1: 1068.8 x10E3/uL; 2: 1239.5 x10E3/uL; 3: 1239.5 x10E3/uL; 4: 1225.83 x10E3/uL; 5: 1118.17 x10E3/uL

====

Record form. Attribute: TOTAL BILIRUBIN. Fill in for each entry.
Species on record: Rattus norvegicus
Test: DrugMatrix - Regimen: Daily Repeat
Format: toxicity, organism-based, Sprague-Dawley
Parameters: regimen Daily Repeat, gender Male, age 6-8 weeks
Settings: in vivo, po, 1500 mg/kg, 72 h, tissue Plasma, route oral GAVAGE, dose level High, time 3 day, vehicle .5 % CMC
Give bare numbers, in mg/dL.

Parameter requested: TOTAL BILIRUBIN. Apply to each item below.
1. Nc1nc2c(c(=O)[nH]1)N(C=O)C(CNc1ccc(C(=O)N[C@@H](CCC(=O)O)C(=O)O)cc1)CN2 (stereo partly drawn)
2. CC(C)(Sc1cc(C(C)(C)C)c(O)c(C(C)(C)C)c1)Sc1cc(C(C)(C)C)c(O)c(C(C)(C)C)c1
3. O=c1cc(-c2ccccc2)oc2ccc3ccccc3c12

1. 0.17
2. 0.17
3. 0.47

====

Organism: Rattus norvegicus
Experiment: DrugMatrix - Regimen: Daily Repeat
Format: toxicity, organism-based, Sprague-Dawley
Set-up: regimen Daily Repeat, gender Male, age 6-8 weeks
Details: in vivo, po, 0 mg/kg, 72 h, tissue Plasma, route oral GAVAGE, dose level Control, time 3 day, […]
Record form. Attribute: CREATINE PHOSPHOKINASE. Fill in for each entry.
Answers are plain numbers, in u/L.

CC[C@H](C)C(=O)O[C@H]1C[C@@H](C)C=C2C=C[C@H](C)[C@H](CC[C@@H]3C[C@@H](O)CC(=O)O3)[C@H]21 [LOVASTATIN]    277
NC[C@@H]1O[C@H](O[C@H]2[C@@H](O)[C@H](O[C@@H]3[C@@H](O)[C@H](N)C[C@H](N)[C@H]3O[C@H]3O[C@H](CN)[C@@H](O)[C@H](O)[C@H]3N)O[C@@H]2CO)[C@H](N)[C@@H](O)[C@@H]1O [FRAMYCETIN]    312.33
C#C[C@]1(O)CC[C@H]2[C@@H]3CCc4cc(O)ccc4[C@H]3CC[C@@]21C [ETHINYL ESTRADIOL]    659.17
CC(=O)Nc1nnc(S(N)(=O)=O)s1 [ACETAZOLAMIDE]    410.33

Okay, next one:
Just so you know, measured CREATINE PHOSPHOKINASE for OCCN1CCN(CCCN2c3ccccc3Sc3ccc(C(F)(F)F)cc32)CC1 [FLUPHENAZINE] came out at 253.33

====

Record form. Attribute: EOSINOPHIL. Fill in for each entry.
Organism: Rattus norvegicus
Assay: DrugMatrix - Regimen: Daily Repeat
Type: toxicity, organism-based, Sprague-Dawley
Set-up: regimen Daily Repeat, gender Male, age 6-8 weeks
Conditions: in vivo, po, 0 mg/kg, 72 h, tissue Blood, route oral GAVAGE, dose level Control, time 3 day, vehicle .5 % CMC
One number for each entry, in %.

Illustrative cases are given below, each with its answer.
C[C@@H](O)[C@H]1C(=O)N2C(C(=O)O)=C(S[C@@H]3CN[C@H](C(=O)N(C)C)C3)[C@H](C)[C@H]12    1.33
CC[C@]1(O)CC[C@H]2[C@@H]3CCC4=CCCC[C@@H]4[C@H]3CC[C@@]21C    0.62
COc1ccccc1OCC(O)COC(N)=O (stereo unspecified)    1
C[C@]12C/C(=C/O)C(=O)C[C@@H]1CC[C@@H]1[C@@H]2CC[C@@]2(C)[C@H]1CC[C@]2(C)O    0.46
CC(C(=O)O)c1ccc(-c2ccccc2)c(F)c1 (stereo unspecified)    1.33

Okay, next one:
Just so you know, measured EOSINOPHIL for Cc1cnc(C(=O)NCCc2ccc(S(=O)(=O)NC(=O)NC3CCCCC3)cc2)cn1 [GLIPIZIDE] came out at 0
